- Conditions Used: in toluene, 283.2 K
Measurement Type: solubility (mole fraction)
Numbers only.

stdin: Could you tell me which solubility (mole fraction) is on file for `CC(C)(C)NSc1nc2ccccc2s1` ?
stdout: 0.0422

====

- Conditions Used: in methanol, 313.2 K
Measurement Type: solubility (mole fraction)
One number for each entry.

stdin: Could you tell me which solubility (mole fraction) is on file for `CC(C)(C)NSc1nc2ccccc2s1` ?
stdout: 0.0266

====

- Conditions Used: in n-butanol, 278.2 K
Measurement Type: solubility (mole fraction)

stdin: Could you tell me which solubility (mole fraction) is on file for `CC(C)(C)NSc1nc2ccccc2s1` ?
stdout: 0.0202

====

- Conditions Used: in tert-butylamine, 283.2 K
Measurement Type: solubility (mole fraction)
Give bare numbers.

stdin: Could you tell me which solubility (mole fraction) is on file for `CC(C)(C)NSc1nc2ccccc2s1` ?
stdout: 0.115

====

- Conditions Used: in isopropanol, 313.2 K
Measurement Type: solubility (mole fraction)
Give bare numbers.

stdin: Could you tell me which solubility (mole fraction) is on file for `CC(C)(C)NSc1nc2ccccc2s1` ?
stdout: 0.0352

====

- Conditions Used: in tert-butylamine, 303.2 K
Measurement Type: solubility (mole fraction)
Numbers only.

stdin: Could you tell me which solubility (mole fraction) is on file for `CC(C)(C)NSc1nc2ccccc2s1` ?
stdout: 0.165

====

- Conditions Used: in toluene, 303.2 K
Measurement Type: solubility (mole fraction)
One number for each entry.

stdin: Could you tell me which solubility (mole fraction) is on file for `CC(C)(C)NSc1nc2ccccc2s1` ?
stdout: 0.084

====

- Conditions Used: in toluene, 308.2 K
Measurement Type: solubility (mole fraction)
One number for each entry.

stdin: Could you tell me which solubility (mole fraction) is on file for `CC(C)(C)NSc1nc2ccccc2s1` ?
stdout: 0.102

====

- Conditions Used: in toluene, 293.2 K
Measurement Type: solubility (mole fraction)
One number for each entry.

stdin: Could you tell me which solubility (mole fraction) is on file for `CC(C)(C)NSc1nc2ccccc2s1` ?
stdout: 0.0605

====

- Conditions Used: in n-butanol, 288.2 K
Measurement Type: solubility (mole fraction)
Answers are plain numbers.

stdin: Could you tell me which solubility (mole fraction) is on file for `CC(C)(C)NSc1nc2ccccc2s1` ?
stdout: 0.028

====

- Conditions Used: in toluene, 278.2 K
Measurement Type: solubility (mole fraction)
Give bare numbers.

stdin: Could you tell me which solubility (mole fraction) is on file for `CC(C)(C)NSc1nc2ccccc2s1` ?
stdout: 0.0355

====

- Conditions Used: in n-butanol, 308.2 K
Measurement Type: solubility (mole fraction)
One number for each entry.

stdin: Could you tell me which solubility (mole fraction) is on file for `CC(C)(C)NSc1nc2ccccc2s1` ?
stdout: 0.0524

====

- Conditions Used: in ethanol, 288.2 K
Measurement Type: solubility (mole fraction)
Give bare numbers.

stdin: Could you tell me which solubility (mole fraction) is on file for `CC(C)(C)NSc1nc2ccccc2s1` ?
stdout: 0.0157

====

- Conditions Used: in isopropanol, 308.2 K
Measurement Type: solubility (mole fraction)
Answers are plain numbers.

stdin: Could you tell me which solubility (mole fraction) is on file for `CC(C)(C)NSc1nc2ccccc2s1` ?
stdout: 0.0298

====

- Conditions Used: in toluene, 298.2 K
Measurement Type: solubility (mole fraction)
One number for each entry.

stdin: Could you tell me which solubility (mole fraction) is on file for `CC(C)(C)NSc1nc2ccccc2s1` ?
stdout: 0.0691
